Target Or Test System: KRAS G12D (Homo sapiens, UniProt P01116, G12D)
Sequence (P01116 1-188 isoform P01116-2 G12D): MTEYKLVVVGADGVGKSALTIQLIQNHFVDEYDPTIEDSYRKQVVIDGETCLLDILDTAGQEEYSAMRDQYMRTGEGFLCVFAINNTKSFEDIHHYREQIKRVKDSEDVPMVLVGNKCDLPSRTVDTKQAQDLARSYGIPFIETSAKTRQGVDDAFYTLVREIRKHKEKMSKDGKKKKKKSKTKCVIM
Test Details: GDP-GTP exchange assay (bodipy-GDP/GppNHp, SOS1), KRAS G12D
Assay type: biochemical
Assay Setup: bodipy-loaded KRAS G12D 2.5 nM, 4 h pre-incubation; value for the most potent isomer quoted for certain compounds; read-out: G12D (KRAS G12D exchange assay IC50)
pIC50: −log10 of the molar value.
Observed Property: pIC50

>  <Compound>
Cc1nc2c(F)c(-c3cccc(Cl)c3Cl)c(CCC#N)cc2c2c1cc([C@H]1C[C@H](OCc3c(F)cccc3F)CN1C(=O)N(C)c1ccccc1)n2[C@H]1[C@H]2CN[C@@H]1C2

>  <Observed Property>
pIC50

>  <Result>
6.00 to 7.00

$$$$
>  <Compound>
Cc1nc2c(F)c(-c3cccc(Cl)c3Cl)c(CCC#N)cc2c2c1cc([C@H]1C[C@H](n3cc(C4CC4)nn3)CN1C(=O)C1CC1)n2[C@H]1[C@H]2CN[C@@H]1C2

>  <Observed Property>
pIC50

>  <Result>
≥ 7.00

$$$$
>  <Compound>
Cc1nc2c(F)c(-c3cccc(Cl)c3Cl)c(CCC#N)cc2c2c1cc([C@H]1C[C@H](n3cccn3)CN1C(=O)C1CC1)n2[C@H]1[C@H]2CN[C@@H]1C2

>  <Observed Property>
pIC50

>  <Result>
≥ 7.00

$$$$
>  <Compound>
Cc1nc2c(F)c(-c3cccc(Cl)c3Cl)c(CCC#N)cc2c2c1cc([C@H]1C[C@H](OCc3ccc(F)cc3)CN1C(=O)C1CC1)n2[C@H]1[C@H]2CN[C@@H]1C2

>  <Observed Property>
pIC50

>  <Result>
≥ 7.00

$$$$
>  <Compound>
Cc1nc2c(F)c(-c3cccc(Cl)c3Cl)c(CCC#N)cc2c2c1cc([C@H]1C[C@H](OC3CC3C)CN1C(=O)C1CC1)n2[C@H]1[C@H]2CN[C@@H]1C2 (some centres unmarked)

>  <Observed Property>
pIC50

>  <Result>
≥ 7.00

$$$$
